tested system: Muscarinic acetylcholine receptor M1 (Homo sapiens)
protocol: Intrinsic activity at human muscarinic M1 receptor expressed in CHO cells assessed as intracellular calcium mobilization after 10 to 15 mins by FLIPR assay
Type: functional, cell-based
Kindly supply the reported Intrinsic activity values for the records listed here.
Give bare numbers, in %.

# cpd smiles, measured
rows = [
    ("O=c1[nH]c2ccccc2n1C1CCN(C2CCOCC2)CC1", 101),
    ("O=c1[nH]c2ccccc2n1C1CCN(CCCOc2ccc(F)cc2)CC1", 86),
    ("Cc1cc2c(cc1F)[nH]c(=O)n2C1CCN(C2CCOCC2)CC1", 94),
]

We now examine a further compound.
Query string: Supply Intrinsic activity value. Item: "Cc1ccc2[nH]c(=O)n(C3CCN(C4CCOCC4)CC3)c2c1"
Result string: 92

Value source: ChEMBL document CHEMBL2146410
